B1: MLL5 (parent)
chain: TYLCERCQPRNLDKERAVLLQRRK

variants of: B1; assay: protein stability index of a GFP-peptide fusion (GPS, HEK-293T) (PSI 1-6); higher = more stable; settings: c terminus: a fixed tail appended;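 note: lentivirally expressed fusions sorted by FACS into six bins by GFP to DsRed ratio, PSI derived from sequencing read proportions per bin multiplied by bin number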

MUTATION_ID | protein stability index
T1M | 1.39
K24T | 2.28
R23P | 2.5
